Please respond with reported log10(solubility kinetic) for every item in the list.
- TEST_SUMMARY: Kinetic aqueous solubility of the compound in phosphate buffer at pH 7.4 by CLND assay
- Type: physicochemical
- CONDITION_SUMMARY: phosphate buffer, read-out: Kinetic_solubility
Could you please treat all values as log10 of solubility kinetic in µM?

A selection of reference data follows.
{"SMILES": "O=S(=O)(CCC(F)(F)F)N[C@H]1CC[C@H](Nc2ncc3c(C4CCOCC4)n[nH]c3n2)CC1", "log10(solubility kinetic)": 1.54}
{"SMILES": "O=S(=O)(CCC(F)(F)F)N[C@H]1CC[C@H](Nc2ncc3c(N4CCNCC4)n[nH]c3n2)CC1", "log10(solubility kinetic)": 2.54}
{"SMILES": "O=S(=O)(CCC(F)(F)F)N[C@H]1CC[C@H](Nc2ncc3c(-c4cncnc4)n[nH]c3n2)CC1", "log10(solubility kinetic)": 1.04}
{"SMILES": "O=S(=O)(CCC(F)(F)F)N[C@H]1CC[C@H](Nc2ncc3c(N4CCCCC4)n[nH]c3n2)CC1", "log10(solubility kinetic)": 1.66}
{"SMILES": "COc1ccccc1-c1n[nH]c2nc(N[C@H]3CC[C@H](NS(=O)(=O)CCC(F)(F)F)CC3)nc(OC)c12", "log10(solubility kinetic)": 1.83}

# evaluate next
compound `C[C@H]1CN(c2n[nH]c3nc(N[C@H]4CC[C@H](NS(=O)(=O)CCC(F)(F)F)CC4)ncc23)CCO1` , log10(solubility kinetic) observed: 2.00
